# experimentalTarget: T1, hCMV gH, gL, UL128, UL130 and UL131A co-expressed in HEK293T cells (human cytomegalovirus, UniProt P12824 24-743; P16832 31-278; P16837 1-171; P16772 1-214)
# T1 construct: whole, on cells; also called gH + gL + UL128 + UL130 + UL131A; gH/gL/UL128-130 complex
# assayNotes: cell cross-competition, 20x excess; competitor 8I21-biotin
reportedEndpoint: Inhibition of binding (%)

1. 15D8 (antibody, V domains shown, human IgG mAb; also called 15D8-biotin) VH: EVQLVQSGAEVKKPGESLKISCQASGYSFTNYWIAWVRQMPGKGLEWMGIIYPGDSDIKYSPSFRGQVTISADKSISNAFLQWRSLRASDTAMYYCARHAIRGDGFDYWGQGTLVTVSS VL: SYELTQPPSVSVSPGQTATITCSGDKLGEKYACWYQQKPGQSPVLVMYQDTKRPSGIPERFSGSNSGNTATLTISGTRAMDEADYYCQAWDTNTVIFGGGTKLTVL : 0
2. 10P3 (antibody, V domains shown, human IgG mAb) VH: EVQLVESGGGLVRPGGSLRLSCAASGFTFHNYRMNWVRQAPGKGLEWVANIKQDGSEKSYVDSVRGRFTTSRDNSKNSLYLQINSLRAEDTAVYYCARGEGYTYGVVYSYSAMDVWGQGTTVIVSS VL: SYELTQPPSVSVSPGQTARITCSGNVLPNQYASWYQQKPGQAPVLVIYKDTERPSGIPGRFSGSSSGTTVTLTISGVQAEDEADYYCQSADSSGADYVFGTGTKVTVL : 0

# credit: patent US20100092481A1
